Values were extracted from patent US11459323B2.

Tested on: Acinetobacter baumannii C402
assay.procedure: MIC on clinically isolated bacteria
Assay type: cell-based
measurement.parameters: Acinetobacter baumannii C402; read-out: Minimum Inhibitory Concentration (MIC)
I'd be grateful if you could share measured MIC for these entries.
Give bare numbers, in µg/mL.

These solved cases illustrate the format of a correct answer.
molecule=CC1(C)[C@H](NC(=O)/C(=N\O[C@@H](COc2ccc3c(c2)CN(C(=N)NCCN)C3)C(=O)O)c2csc(N)n2)C(=O)N1OS(=O)(=O)O endpoint_name=MIC assay_result=1
molecule="C[C@H]1[C@H](NC(=O)/C(=N\\OC(C)(C)C(=O)O)c2csc(N)n2)C(=O)N1S(=O)(=O)O [Aztreonam, reference compound]" endpoint_name=MIC assay_result=32

(Q) Name the recorded MIC for C[C@@H](O)[C@H]1C(=O)N2C(C(=O)O)=C(S[C@@H]3CN[C@H](C(=O)N(C)C)C3)[C@H](C)[C@H]12 [Meropenem, reference compound] .
(A) 64

* * *

Tested on: Acinetobacter baumannii C395
assay.procedure: MIC on clinically isolated bacteria
Type: cell-based
measurement.parameters: Acinetobacter baumannii C395; read-out: Minimum Inhibitory Concentration (MIC)
endpoint.name: log10 of MIC (log10 of the value in µg/mL)
Could you please treat all values as log10 of MIC in µg/mL?

Solved cases (5 shown):
compound="CC1(C)[C@H](NC(=O)/C(=N\\O[C@@H](COc2ccc3c(c2)CN(/C(=N\\[C@@H]2CCCNC2)N[C@@H]2CCCNC2)C3)C(=O)O)c2csc(N)n2)C(=O)N1OS(=O)(=O)O [Compound 46]" assay_result=0.60
compound="CC1(C)[C@H](NC(=O)/C(=N\\O[C@@H](COc2ccc3c(c2)CN(C(=N)NOCCN)C3)C(=O)O)c2csc(N)n2)C(=O)N1OS(=O)(=O)O [Compound 43]" assay_result=0.90
compound="CC1(C)[C@H](NC(=O)/C(=N\\O[C@@H](COc2ccc3c(c2)CN(C(=N)N(CCN)CCN)C3)C(=O)O)c2csc(N)n2)C(=O)N1OS(=O)(=O)O [Compound 45]" assay_result=0.90
compound="CC1(C)[C@H](NC(=O)/C(=N\\O[C@@H](COc2ccc3c(c2)CN(C(=N)NCCN)C3)C(=O)O)c2csc(N)n2)C(=O)N1OS(=O)(=O)O [Compound 44]" assay_result=0.00
compound="CC1(C)[C@H](NC(=O)/C(=N\\O[C@@H](COc2ccc3c(c2)CN(C(=N)NCCCCN)C3)C(=O)O)c2csc(N)n2)C(=O)N1OS(=O)(=O)O [Compound 36]" assay_result=0.30

I need log10 of MIC for every entry listed below, if you could help.
1. CC1(C)[C@H](NC(=O)/C(=N\O[C@@H](COc2ccc3c(c2)CN(C(=N)N[C@@H]2CCCNC2)C3)C(=O)O)c2csc(N)n2)C(=O)N1OS(=O)(=O)O [Compound 41]
2. C[C@H]1[C@H](NC(=O)/C(=N\OC(C)(C)C(=O)O)c2csc(N)n2)C(=O)N1S(=O)(=O)O [Aztreonam, reference compound]

(A)
1. 0.30
2. 1.51

* * *

Test system: Aeruginosa ATCC27853
assay.procedure: MIC on clinically isolated bacteria
Format: cell-based
measurement.parameters: Pseudomonas aeruginosa; Aeruginosa ATCC27853; read-out: MIC
endpoint.name: MIC

compound="CC1(C)[C@H](NC(=O)/C(=N\\O[C@@H](COc2ccc3c(c2)CN(C(=N)N[C@@H]2CCCNC2)C3)C(=O)O)c2csc(N)n2)C(=O)N1OS(=O)(=O)O [Compound 41]" endpoint_name=MIC assay_result="0.5 µg/mL"
compound="CC1(C)[C@H](NC(=O)/C(=N\\O[C@@H](COc2ccc3c(c2)CN(/C(=N\\[C@@H]2CCCNC2)N[C@@H]2CCCNC2)C3)C(=O)O)c2csc(N)n2)C(=O)N1OS(=O)(=O)O [Compound 46]" endpoint_name=MIC assay_result="0.5 µg/mL"
compound="C[C@H]1[C@H](NC(=O)/C(=N\\OC(C)(C)C(=O)O)c2csc(N)n2)C(=O)N1S(=O)(=O)O [Aztreonam, reference compound]" endpoint_name=MIC assay_result="2 µg/mL"
compound="CC1(C)[C@H](NC(=O)/C(=N\\O[C@@H](COc2ccc3c(c2)CN(C(=N)NCCN)C3)C(=O)O)c2csc(N)n2)C(=O)N1OS(=O)(=O)O [Compound 44]" endpoint_name=MIC assay_result="0.5 µg/mL"
compound="C[C@@H](O)[C@H]1C(=O)N2C(C(=O)O)=C(S[C@@H]3CN[C@H](C(=O)N(C)C)C3)[C@H](C)[C@H]12 [Meropenem, reference compound]" endpoint_name=MIC assay_result="< 0.25 µg/mL"

For each of the compounds below, state MIC.
1. CC1(C)[C@H](NC(=O)/C(=N\O[C@@H](COc2ccc3c(c2)CN(C(=N)NCCCCN)C3)C(=O)O)c2csc(N)n2)C(=O)N1OS(=O)(=O)O [Compound 36]
2. CC1(C)[C@H](NC(=O)/C(=N\O[C@@H](COc2ccc3c(c2)CN(C(=N)NOCCN)C3)C(=O)O)c2csc(N)n2)C(=O)N1OS(=O)(=O)O [Compound 43]
3. CC1(C)[C@H](NC(=O)/C(=N\O[C@@H](COc2ccc3c(c2)CN(C(=N)N(CCN)CCN)C3)C(=O)O)c2csc(N)n2)C(=O)N1OS(=O)(=O)O [Compound 45]

(A)
["0.25 µg/mL", "1 µg/mL", "2 µg/mL"]

* * *

For each of the compounds below, state its MIC.
Tested on: Acinetobacter baumannii C181
assay.procedure: MIC on clinically isolated bacteria
Format: cell-based
measurement.parameters: Acinetobacter baumannii C181; read-out: Minimum Inhibitory Concentration (MIC)
Give bare numbers, in µg/mL.

Hi team, please reply with MIC for each item in this list.
1. CC1(C)[C@H](NC(=O)/C(=N\O[C@@H](COc2ccc3c(c2)CN(C(=N)N[C@@H]2CCCNC2)C3)C(=O)O)c2csc(N)n2)C(=O)N1OS(=O)(=O)O
2. CC1(C)[C@H](NC(=O)/C(=N\O[C@@H](COc2ccc3c(c2)CN(C(=N)NCCCCN)C3)C(=O)O)c2csc(N)n2)C(=O)N1OS(=O)(=O)O

(A)
4
2

* * *

assay.procedure: Pharmacokinetic experiment of the compounds in mice
Format: in vivo
measurement.parameters: mouse, plasma, 2 mg/kg; Male CD-1 mice, fasting, intravenous injection, 2 mpk; read-out: Half-life period T1/2 (converted)
Could you please report measured half-life for the items listed next?
Answers are plain numbers, in min.

Study these solved cases before continuing.
smiles_data=CC1(C)[C@H](NC(=O)/C(=N\O[C@@H](COc2ccc3c(c2)CN(C(=N)N(CCCN)CCCN)C3)C(=O)O)c2csc(N)n2)C(=O)N1OS(=O)(=O)O endpoint_name=half-life assay_result=30.8
smiles_data=CC1(C)[C@H](NC(=O)/C(=N\OCCOc2ccc3c(c2)CN(C(=N)NCCCN)C3)c2csc(N)n2)C(=O)N1OS(=O)(=O)O endpoint_name=half-life assay_result=28.6
smiles_data=CC1(C)[C@H](NC(=O)/C(=N\OCCOc2ccc3c(c2)CN(C(=N)N(CCCN)CCCN)C3)c2csc(N)n2)C(=O)N1OS(=O)(=O)O endpoint_name=half-life assay_result=35.8

(Q) Return reported half-life; argument: `CC1(C)[C@H](NC(=O)/C(=N\O[C@@H](COc2ccc3c(c2)CN(C(=N)NCCCN)C3)C(=O)O)c2csc(N)n2)C(=O)N1OS(=O)(=O)O`
(A) 22.6

* * *

Give measured log10 MIC for each item. Keep answers brief.
Tested on: Pseudomonas aeruginosa W23
assay.procedure: MIC on clinically isolated bacteria
Type: cell-based
measurement.parameters: read-out: MIC
All values: log10 MIC [µg/mL].

For orientation, consider the following solved cases.
compound=CC1(C)[C@H](NC(=O)/C(=N\O[C@@H](COc2ccc3c(c2)CN(C(=N)NCCCCN)C3)C(=O)O)c2csc(N)n2)C(=O)N1OS(=O)(=O)O assay_result=-0.60
compound=CC1(C)[C@H](NC(=O)/C(=N\O[C@@H](COc2ccc3c(c2)CN(C(=N)NOCCN)C3)C(=O)O)c2csc(N)n2)C(=O)N1OS(=O)(=O)O assay_result=0.00
compound="C[C@@H](O)[C@H]1C(=O)N2C(C(=O)O)=C(S[C@@H]3CN[C@H](C(=O)N(C)C)C3)[C@H](C)[C@H]12 [Meropenem, reference compound]" assay_result=1.20
compound=CC1(C)[C@H](NC(=O)/C(=N\O[C@@H](COc2ccc3c(c2)CN(/C(=N\[C@@H]2CCCNC2)N[C@@H]2CCCNC2)C3)C(=O)O)c2csc(N)n2)C(=O)N1OS(=O)(=O)O assay_result=-0.60
compound=CC1(C)[C@H](NC(=O)/C(=N\O[C@@H](COc2ccc3c(c2)CN(C(=N)NCCN)C3)C(=O)O)c2csc(N)n2)C(=O)N1OS(=O)(=O)O assay_result=-0.30

# batch size: 3; output log10 MIC per entry
1. C[C@H]1[C@H](NC(=O)/C(=N\OC(C)(C)C(=O)O)c2csc(N)n2)C(=O)N1S(=O)(=O)O [Aztreonam, reference compound]
2. CC1(C)[C@H](NC(=O)/C(=N\O[C@@H](COc2ccc3c(c2)CN(C(=N)N[C@@H]2CCCNC2)C3)C(=O)O)c2csc(N)n2)C(=O)N1OS(=O)(=O)O
3. CC1(C)[C@H](NC(=O)/C(=N\O[C@@H](COc2ccc3c(c2)CN(C(=N)N(CCN)CCN)C3)C(=O)O)c2csc(N)n2)C(=O)N1OS(=O)(=O)O

(A)
1. 1.20
2. -0.30
3. 0.60
